Numbers sourced from patent US20110251230A1.

# System: NRF2-ARE pathway in the CHO 4× ARE-TK cell line
# PROTOCOL DESCRIPTION: ARE reporter assay in CHO 4×ARE-TK-GFP cell line (GFP induction, EthD1 toxicity)
# DETAILS: Cricetulus griseus, 24 h, read-out: Average fold GFP induction at maximal response
Counter-ions that a name gives are not always drawn.
# reported maximal fold induction; entries follow
Respond with the number and no other words.

Observe how each entry below is paired with its result.
{"COMPOUND": "O=C(/C=C/c1ccc(O)cc1)c1ccccc1 [4 hydroxychalcone]", "ASSAYED SYSTEM": "NRF2-ARE pathway in the CHO 4× ARE-TK cell line", "maximal fold induction": 1.88}
{"COMPOUND": "O=c1c2ccccc2[se]n1-c1ccccc1 [Ebselen, reference compound]", "ASSAYED SYSTEM": "NRF2-ARE pathway in the CHO 4× ARE-TK cell line", "maximal fold induction": 2.81}
{"COMPOUND": "C=CC(C1=CC(=O)C=CC1=O)c1ccccc1 (stereo not drawn) [Dalbergione]", "ASSAYED SYSTEM": "NRF2-ARE pathway in the CHO 4× ARE-TK cell line", "maximal fold induction": 2.09}
{"COMPOUND": "CC(=O)CCC(=O)O [levulinc acid, Levulinic acid]", "ASSAYED SYSTEM": "NRF2-ARE pathway in the CHO 4× ARE-TK cell line", "maximal fold induction": 2.94}
{"COMPOUND": "CC(C)N(C(=O)CCl)c1ccccc1 [Propachlor]", "ASSAYED SYSTEM": "NRF2-ARE pathway in the CHO 4× ARE-TK cell line", "maximal fold induction": 3.25}

May I ask what maximal fold induction has been recorded for COc1cc(O)c(C)c(O)c1 [2,6-dihydroxy-4-methoxytoluene] ?
3.05

May I ask what maximal fold induction has been recorded for COc1ccc(/C=C/C(=O)c2ccccc2)cc1 [4 methoxychalcone] ?
2.13

May I ask what maximal fold induction has been recorded for O=C(CCBr)N1CCN(C(=O)CCBr)CC1 [Pipobroman, reference compound] ?
3.21

May I ask what maximal fold induction has been recorded for Cc1cc(O)c(C)c(O)c1C(=O)O [3 methylorsellinic acid] ?
2.87

May I ask what maximal fold induction has been recorded for CC1=C2C(=CO[C@H](C)[C@H]2C)C(O)=C(C(=O)O)C1=O [Citrinin] ?
3.26

May I ask what maximal fold induction has been recorded for CCCCCc1c2c(cc(O)c1C(=O)O)OC(=O)c1c(cc(OC)cc1C(=O)CCCC)O2 [Lobaric acid] ?
2.53

May I ask what maximal fold induction has been recorded for CC1(C)C2CC(=O)O[C@@]3(C)C4=CC(=O)O[C@@H](c5ccoc5)[C@]4(C)CCC3[C@@]2(C)C=C[C@H]1O (stereo partly drawn) [Deoxyandirobin lactone] ?
3.03

May I ask what maximal fold induction has been recorded for CC(=O)OC1CC[C@@]2(C)C(CC[C@H]3[C@@H]4CC=C(C(C)=O)[C@@]4(C)C(=O)C[C@@H]32)C1 (stereo partly drawn) [3 acetoxypregn-16-en-12,20-dione] ?
3.14

May I ask what maximal fold induction has been recorded for COc1cccc(O)c1O [3 methoxycatechol] ?
3.28

May I ask what maximal fold induction has been recorded for CN1CCc2cccc3c2[C@H]1Cc1ccc(O)c(O)c1-3 [Apomorphine hydrochloride, reference compound] ?
1.9

May I ask what maximal fold induction has been recorded for O=C1C=C2C=C[C@@H]3C[C@@]2(O1)[C@H]1CCCCN31 [Securinine] ?
3

###

# System: NRF2-ARE pathway in the CHO 4× ARE-TK cell line
# PROTOCOL DESCRIPTION: ARE reporter assay in CHO 4×ARE-TK-GFP cell line (GFP induction, EthD1 toxicity)
# DETAILS: Cricetulus griseus, 24 h, read-out: Average EC50
# reported pEC50; entries follow
Interpret pEC50 as the negative base-10 log of the concentration measured in mol/L.

{"COMPOUND": "O=C1C=C2C=C[C@@H]3C[C@@]2(O1)[C@H]1CCCCN31", "pEC50": 5.67}

May I ask what pEC50 has been recorded for ClC1=C(Cl)C2(Cl)C3C(Cl)C(Cl)CC3C1(Cl)C2(Cl)Cl (stereo not shown) ?
5.04

May I ask what pEC50 has been recorded for C=C(C)C(=O)C(=CC(=O)O)OC ?
4.83

May I ask what pEC50 has been recorded for CC1=C2C(=CO[C@H](C)[C@H]2C)C(O)=C(C(=O)O)C1=O ?
5.39

May I ask what pEC50 has been recorded for CC(C)N(C(=O)CCl)c1ccccc1 ?
5.83

May I ask what pEC50 has been recorded for COc1ccc(/C=C/C(=O)c2ccccc2)cc1 ?
4.82

May I ask what pEC50 has been recorded for CC1(C)C(=O)C=C[C@]2(C)[C@H]3CC[C@@]4(C)[C@H](c5ccoc5)OC(=O)[C@H]5O[C@]54[C@]3(C)[C@H](O)C[C@@H]12 ?
5.46

###

# reported Maximal % reduction in Oxidative stress; entries follow
# System: 1321N1 (human) astrocytic line
# PROTOCOL DESCRIPTION: 1321N1 oxidative stress assay (serum withdrawal, DCF)
# DETAILS: 1321N1, DCF fluorescence
Quick reminder: number only, in %, skip the unit.

Observe how each entry below is paired with its result.
{"COMPOUND": "C=CC(C1=CC(=O)C(OC)=CC1=O)c1ccccc1 (centres unmarked)", "REPORTED VALUE": 43}
{"COMPOUND": "COC(=O)[C@H](O)[C@H]1C(C)(C)[C@H](OC(C)=O)[C@@H]2CC3=C4CC(=O)O[C@@H](c5ccoc5)[C@]4(C)CC[C@@H]3[C@@]1(C)C2=O [swietenolide 3 acetate]", "REPORTED VALUE": 60}
{"COMPOUND": "O=C(CC[N+](=O)[O-])OC[C@H]1O[C@@H](O)[C@H](OC(=O)CC[N+](=O)[O-])[C@@H](OC(=O)CC[N+](=O)[O-])[C@@H]1OC(=O)CC[N+](=O)[O-]", "REPORTED VALUE": 56}
{"COMPOUND": "COc1ccc2c(c1)OC/C(=C/c1ccc(OC)c(OC)c1)C2=O", "REPORTED VALUE": 40}
{"COMPOUND": "Cc1[nH]c2ccccc2c1CN(C)C", "REPORTED VALUE": 36}

May I ask what Maximal % reduction in Oxidative stress has been recorded for CC(=O)O[C@@H]1CC2C(C)(C)C=CC(=O)[C@]2(C)C2CC[C@@]3(C)[C@H](c4ccoc4)OC(=O)C4OC43[C@@]21C (some centres unmarked) ?
10

May I ask what Maximal % reduction in Oxidative stress has been recorded for CC(=O)O[C@@H]1C[C@H]2C(C)(C)C(=O)C=C[C@]2(C)[C@H]2CC[C@]3(C)C(=CC(=O)O[C@H]3c3ccoc3)[C@@]21C ?
25

May I ask what Maximal % reduction in Oxidative stress has been recorded for C[C@@H]1C(=O)O[C@H]2[C@H]1CC[C@@]1(C)C=CC(=O)[C@@]3(C)O[C@@]213 [epoxy(4,5α)-4,5-dihydrosantonin] ?
63

###

# Tested on: NRF2-ARE pathway in the CHO 4× ARE-TK cell line
# PROTOCOL DESCRIPTION: ARE reporter assay in CHO 4×ARE-TK-GFP cell line (GFP induction, EthD1 toxicity)
# DETAILS: Chinese hamster, 24 h
# reported Lowest dose with toxicity; entries follow
Quick reminder: number only, in µM, skip the unit.

Observe how each entry below is paired with its result.
{"COMPOUND": "C=C1CC[C@@H]2[C@](C)(CO)[C@H](O)CC[C@@]2(C)[C@@H]1C/C=C1/C(=O)OC[C@H]1O [Andrographolide]", "ENDPOINT UNIT": "µM", "Lowest dose with toxicity": 100}
{"COMPOUND": "CC(=O)Oc1ccc(O)cc1", "ENDPOINT UNIT": "µM", "Lowest dose with toxicity": 100}

For the next question, use this compound.
May I ask what Lowest dose with toxicity has been recorded for CCCCCc1c2c(cc(O)c1C(=O)O)OC(=O)c1c(cc(OC)cc1C(=O)CCCC)O2 ?
100

###

# reported pIC50; entries follow
# System: 1321N1 (human) astrocytic line
# PROTOCOL DESCRIPTION: 1321N1 oxidative stress assay (serum withdrawal, DCF)
# DETAILS: 1321N1, 24 h pre-treatment, serum withdrawal, DCF
Interpret pIC50 as the negative base-10 log of the concentration measured in mol/L.

Observe how each entry below is paired with its result.
{"COMPOUND": "CC(C)N(C(=O)CCl)c1ccccc1", "ASSAYED SYSTEM": "1321N1 (human) astrocytic line", "pIC50": 6.08}
{"COMPOUND": "C[C@@H]1C(=O)O[C@H]2[C@H]1CC[C@@]1(C)C=CC(=O)[C@@]3(C)O[C@@]213 [epoxy(4,5α)-4,5-dihydrosantonin]", "ASSAYED SYSTEM": "1321N1 (human) astrocytic line", "pIC50": 6.18}
{"COMPOUND": "COc1ccc(/C=C/C(=O)c2ccccc2)cc1", "ASSAYED SYSTEM": "1321N1 (human) astrocytic line", "pIC50": 5.44}

May I ask what pIC50 has been recorded for CC(=O)O[C@@H]1C[C@H]2C(C)(C)C(=O)C=C[C@]2(C)[C@H]2CC[C@]3(C)C(=CC(=O)O[C@H]3c3ccoc3)[C@@]21C ?
5.85

May I ask what pIC50 has been recorded for OC[C@H]1O[C@@H](n2cnc3c(NCc4ccco4)ncnc32)[C@H](O)[C@@H]1O [kinetin riboside] ?
6.61

May I ask what pIC50 has been recorded for O=C1C=C2C=C[C@@H]3C[C@@]2(O1)[C@H]1CCCCN31 ?
4.74

May I ask what pIC50 has been recorded for C=C1CC[C@@H]2[C@](C)(CO)[C@H](O)CC[C@@]2(C)[C@@H]1C/C=C1/C(=O)OC[C@H]1O [Andrographolide] ?
6.30

May I ask what pIC50 has been recorded for COc1ccc2c(c1)OC/C(=C/c1ccc(OC)c(OC)c1)C2=O ?
6.55

May I ask what pIC50 has been recorded for CC1(C)C(=O)C=C[C@]2(C)[C@H]3CC[C@@]4(C)[C@H](c5ccoc5)OC(=O)[C@H]5O[C@]54[C@]3(C)[C@H](O)C[C@@H]12 ?
5.63

May I ask what pIC50 has been recorded for CC1=C2C(=CO[C@H](C)[C@H]2C)C(O)=C(C(=O)O)C1=O ?
6.47

May I ask what pIC50 has been recorded for Cc1[nH]c2ccccc2c1CN(C)C ?
4.96
